Just for reference, patent US10517889B2 is where these values come from.

test system: human peripheral blood mononuclear cells (PBMCs); assay: Human PBMC activation assay, cytokine levels (IL-10, IL-6, MCP-1, TNF-α) in supernatant after 24 hours (Example 9); settings: human PBMC supernatant after 24 hours; 8 μM oligonucleotide
readoutLabel: Levels of IL-6 (pg/mL)

1. 798781 (CGTAAGATTCACAGCA; 3-10-3 cEt gapmer, further chemistry not given here) [compound 798781] | 18.1
2. 736697 (antisense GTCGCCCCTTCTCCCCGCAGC; chemistry not fully specified) [compound 736697] | 57.4
3. 830037 (antisense CTATTGGCTGATCTGG; 3-10-3 cEt gapmer, further chemistry not given here) [compound 830037] | 38.4

* * *

tested on: human SMAD7 mRNA; test: Antisense inhibition of human SMAD7 mRNA expression in Hep3B cells by 3-10-3 cEt gapmers, 10,000 nM, electroporation (Example 2); format: cell-based; conditions: Hep3B cells, electroporation with 10,000 nM antisense oligonucleotide, approximately 24 hours, SMAD7 mRNA by RT-PCR (RTS5062), relative to untreated control cells
Strand notation (5' to 3'): a small letter for the sugar, then the base; units joined by * are phosphorothioate-linked, units joined directly phosphodiester-linked; [ ] holds rarer units or linkages, { } end groups; capitals alone tell only the bases. k = constrained ethyl (cEt); [5mC] = 5-methylcytosine; d = 2'-deoxy (DNA)
readoutLabel: % Inhibition (%)

1. 830037 (antisense CTATTGGCTGATCTGG; 3-10-3 cEt gapmer, further chemistry not given here) [compound 830037] | 67
2. 830171 (antisense kT*kG*k[5mC]*dT*d[5mC]*dT*dG*dT*dT*dT*dG*dG*dA*k[5mC]*kA*kA) [compound 830171] | 26
3. 799485 (antisense kA*kG*k[5mC]*d[5mC]*dA*d[5mC]*dT*d[5mC]*d[5mC]*d[5mC]*d[5mC]*dG*d[5mC]*k[5mC]*kA*k[5mC]) [compound 799485] | 0
4. 800048 (antisense kT*kG*kG*dA*dA*dA*dG*dG*dA*dA*dG*dA*d[5mC]*kT*k[5mC]*kG) [compound 800048] | 64
5. 799393 (antisense kT*kG*k[5mC]*dT*dT*dT*dG*d[5mC]*dG*dG*dG*d[5mC]*d[5mC]*kA*k[5mC]*kT) [compound 799393] | 56
6. 799391 (antisense k[5mC]*kG*k[5mC]*d[5mC]*d[5mC]*d[5mC]*dA*dG*d[5mC]*dA*dA*dA*dA*k[5mC]*kT*kT) [compound 799391] | 0

* * *

system: human SMAD7 mRNA; assay: Antisense inhibition of human SMAD7 mRNA expression in Hep3B cells by 3-10-3 cEt gapmers, 10,000 nM, electroporation (Example 2); format: cell-based; conditions: Hep3B cells, electroporation with 10,000 nM antisense oligonucleotide, approximately 24 hours, primer probe set RTS5062, relative to untreated control cells
Strand notation (5' to 3'): a small letter for the sugar, then the base; units joined by * are phosphorothioate-linked, units joined directly phosphodiester-linked; [ ] holds rarer units or linkages, { } end groups; capitals alone tell only the bases. k = constrained ethyl (cEt); [5mC] = 5-methylcytosine; d = 2'-deoxy (DNA)
readoutLabel: % inhibition of SMAD7 mRNA expression (%)

1) 799465 (antisense kA*kG*k[5mC]*dT*d[5mC]*dT*dA*dG*dG*d[5mC]*d[5mC]*dA*d[5mC]*kT*k[5mC]*k[5mC]) [compound 799465] | 64
2) 799023 (kT*kG*kG*dG*dA*d[5mC]*dT*dG*d[5mC]*dA*dA*dA*d[5mC]*k[5mC]*kT*k[5mC]; antisense) [compound 799023] | 42
3) 772709 (kT*kA*kA*dA*dG*d[5mC]*dA*dA*dA*dG*dT*dG*d[5mC]*kA*kT*k[5mC]; antisense) [compound 772709] | 0
4) 799417 (antisense kG*kG*k[5mC]*d[5mC]*dA*dA*dA*d[5mC]*dA*dT*dT*d[5mC]*dT*k[5mC]*k[5mC]*k[5mC]) [compound 799417] | 26
5) 799170 (antisense kT*k[5mC]*kA*dT*dT*dG*dA*dG*d[5mC]*dT*dA*dA*dG*kA*kA*k[5mC]) [compound 799170] | 17
6) 799125 (antisense kT*k[5mC]*k[5mC]*d[5mC]*d[5mC]*dG*d[5mC]*dT*dT*dG*d[5mC]*dT*dG*kG*k[5mC]*k[5mC]) [compound 799125] | 62
